# Tested on: Mus musculus
# Assay info: Inhibition of Hedgehog signaling in Calu-6 cells xenografted nude mouse PK/PD model assessed as reduction in Gli1 mRNA expression at 75 mg/kg, po bid for 5 days measured 4 hrs post last dose relative to untreated control
# Assay type: functional
# Measurement conditions: Calu-6, po, in the assay text read “for 5 doses” for “for 5 days”
Readout type: inhibition in vivo at 75 mg/kg

Some solved cases for reference:
Compound | Recorded value
Cc1nc(C(F)(F)F)ccc1C(=O)Nc1ccc(Cl)c(-c2ccccn2)c1 | 40%
CC(=O)N1CCN(c2ccc(C(=O)Nc3ccc(Cl)c(-c4ccccn4)c3)c(C)n2)CC1 | 80%
CS(=O)(=O)Cc1ccc(C(=O)Nc2ccc(Cl)c(-c3ccccn3)c2)c(Cl)c1 | 0%

Shift focus to the following entry.
Query string: Param item = CS(=O)(=O)c1ccc(C(=O)Nc2ccc(Cl)c(-c3ccccn3)c2)c(Cl)c1 [VISMODEGIB] ; retrieve measured inhibition in vivo at 75 mg/kg.
Result string: 90%

* * *

# Assay info: Volume of distribution at steady state in rat at 5 mg/kg, po or 1 mg/kg, iv
# Assay type: ADME, organism-based
# Measurement conditions: in vivo, read-out: Vdss
Readout type: Vd (L/kg)
Write down the numeric answer in L/kg and omit the unit.

These recorded examples may help you get a feel for the data.
Chemical structure | Uom | Vd
CC(=O)N1CCN(c2ccc(C(=O)Nc3ccc(Cl)c(-c4ccccn4)c3)c(C)n2)CC1 | L/kg | 0.38
Cc1nc(C(F)(F)F)ccc1C(=O)Nc1ccc(Cl)c(-c2ccccn2)c1 | L/kg | 0.95
Cc1ncn(-c2ccc(C(=O)Nc3ccc(Cl)c(-c4ccccn4)c3)c(C)n2)n1 | L/kg | 0.24

We now examine a further molecule.
Query string: Vd lookup needed for O=C(Nc1ccc(Cl)c(-c2ccccn2)c1)c1ccc(-n2cncn2)nc1 , thanks.
Result string: 1.4

* * *

Entries and their measured concentration at 4 h follow.
# Assay info: Plasma concentration in Calu-6 cells xenografted nude mouse PK/PD model at 75 mg/kg, po bid for 5 days measured 4 hrs post last dose relative to untreated control
# Assay type: ADME, organism-based
# Parameters: dose 75 mg/kg, route oral
Respond numerically; units are µM and should not be typed.

Chemical structure | Uom | concentration at 4 h
Cc1nc(C(F)(F)F)ccc1C(=O)Nc1ccc(Cl)c(-c2ccccn2)c1 | µM | 15
CS(=O)(=O)Cc1ccc(C(=O)Nc2ccc(Cl)c(-c3ccccn3)c2)c(Cl)c1 | µM | 0.3
CC(=O)N1CCN(c2ccc(C(=O)Nc3ccc(Cl)c(-c4ccccn4)c3)c(C)n2)CC1 | µM | 22
Cc1ncn(-c2ccc(C(=O)Nc3ccc(Cl)c(-c4ccccn4)c3)c(C)n2)n1 | µM | 150

We next turn to a different compound, shown below.
Query string: What does the record list as concentration at 4 h for CS(=O)(=O)Nc1ccc(C(=O)Nc2ccc(Cl)c(-c3ccccn3)c2)c(Cl)c1 ?
Result string: 2.2

* * *

# Assay info: Clearance in rat at 5 mg/kg, po or 1 mg/kg, iv
# Type: ADME, organism-based
# Measurement conditions: in vivo
Readout type: clearance (mL/min/kg)
Answer in mL/min/kg, number only, no unit symbol.

Molecule | Recorded value
O=C(Nc1ccc(Cl)c(-c2ccccn2)c1)c1ccc(-n2cncn2)nc1 | 4
CS(=O)(=O)c1ccc(C(=O)Nc2ccc(Cl)c(-c3ccccn3)c2)c(Cl)c1 [VISMODEGIB] | 3.7
CS(=O)(=O)Cc1ccc(C(=O)Nc2ccc(Cl)c(-c3ccccn3)c2)c(Cl)c1 | 5.5
CC(=O)N1CCN(c2ccc(C(=O)Nc3ccc(Cl)c(-c4ccccn4)c3)c(C)n2)CC1 | 2

Query string: Form field: reported clearance of CS(=O)(=O)Nc1ccc(C(=O)Nc2ccc(Cl)c(-c3ccccn3)c2)c(Cl)c1
Result string: 2.4

* * *

# Assay info: Plasma concentration in Calu-6 cells xenografted nude mouse PK/PD model at 25 mg/kg, po bid for 5 days measured 6 hrs post last dose relative to untreated control
# Type: ADME, organism-based
# Set-up: dose 25 mg/kg, route oral
Readout type: concentration at 6 h (nM)
Use nM as the unit, but write only the number.

Query string: Which concentration at 6 h is listed for O=C(NCc1ccccn1)c1ccc(C(=O)Nc2ccc(Cl)c(-c3ccccn3)c2)c(Cl)c1 ?
Result string: 1700

* * *

# Measured target: UniProt P11712
# Assay info: Inhibition of CYP2C9
# Type: ADME
Readout type: IC50

# example entries with known answers
Chemical structure | Measured target | IC50
O=C(NCc1ccccn1)c1ccc(C(=O)Nc2ccc(Cl)c(-c3ccccn3)c2)c(Cl)c1 | UniProt P11712 | 4.5 µM
Cc1ncn(-c2ccc(C(=O)Nc3ccc(Cl)c(-c4ccccn4)c3)c(C)n2)n1 | UniProt P11712 | > 20 µM
CCN1CCN(c2ccc(C(=O)Nc3ccc(Cl)c(-c4ccccn4)c3)c(C)n2)CC1 | UniProt P11712 | > 20 µM

Query string: GET /values?readout=IC50&item= Cc1nc(NCC(C)C)ccc1C(=O)Nc1ccc(Cl)c(-c2ccccn2)c1
Result string: 0.5 µM

Query string: Follow-up item: CC(=O)N1CCN(c2ccc(C(=O)Nc3ccc(Cl)c(-c4ccccn4)c3)c(C)n2)CC1
Result string: 16 µM

* * *

Below is a list of entries, each paired with its recorded clearance value.
# Assay info: Clearance in rat at 5 mg/kg, po or 1 mg/kg, iv
# Type: ADME, organism-based
# Measurement conditions: in vivo
Entry rule: numbers only, all in mL/min/kg.

Query string: Field request: clearance | item: Cc1ncn(-c2ccc(C(=O)Nc3ccc(Cl)c(-c4ccccn4)c3)c(C)n2)n1
Result string: 0.7

Query string: One more compound: Cc1nc(C(F)(F)F)ccc1C(=O)Nc1ccc(Cl)c(-c2ccccn2)c1
Result string: 4.5

Query string: // next record O=C(Nc1ccc(Cl)c(-c2ccccn2)c1)c1ccc(C(=O)N2CCS(=O)(=O)CC2)cc1Cl
Result string: 35

Query string: Again, but for O=C(NCc1ccccn1)c1ccc(C(=O)Nc2ccc(Cl)c(-c3ccccn3)c2)c(Cl)c1
Result string: 6.7

* * *

# Assay info: Thermodynamic solubility at pH 1.0
# Type: physicochemical
# Measurement conditions: buffer
Measured log10 solubility thermodynamic, listed per entry for reference.
Recall that a logarithmic scale is used here: each number is log10 of solubility thermodynamic in µg/mL.

Chemical structure | log10 solubility thermodynamic
Cc1nc(C(F)(F)F)ccc1C(=O)Nc1ccc(Cl)c(-c2ccccn2)c1 | 3.00
O=C(Nc1ccc(Cl)c(-c2ccccn2)c1)c1ccc(C(=O)N2CCS(=O)(=O)CC2)cc1Cl | 3.63
CS(=O)(=O)Nc1ccc(C(=O)Nc2ccc(Cl)c(-c3ccccn3)c2)c(Cl)c1 | 2.96
CC(=O)N1CCN(c2ccc(C(=O)Nc3ccc(Cl)c(-c4ccccn4)c3)c(C)n2)CC1 | 3.51
O=C(Nc1ccc(Cl)c(-c2ccccn2)c1)c1ccc(-n2cncn2)nc1 | 3.60

Query string: What does the data say about its log10 solubility thermodynamic? Entry: CS(=O)(=O)c1ccc(C(=O)Nc2ccc(Cl)c(-c3ccccn3)c2)c(Cl)c1
Result string: 3.54

Query string: Next compound up: Cc1ncn(-c2ccc(C(=O)Nc3ccc(Cl)c(-c4ccccn4)c3)c(C)n2)n1
Result string: 2.95

Query string: Consider next the compound CS(=O)(=O)Cc1ccc(C(=O)Nc2ccc(Cl)c(-c3ccccn3)c2)c(Cl)c1 in the same way.
Result string: 2.04

Query string: Please answer likewise for O=C(NCc1ccccn1)c1ccc(C(=O)Nc2ccc(Cl)c(-c3ccccn3)c2)c(Cl)c1
Result string: 3.63

* * *

# Measured target: Cytochrome P450 2C9 (Homo sapiens, UniProt P11712)
# Sequence (P11712 whole entry): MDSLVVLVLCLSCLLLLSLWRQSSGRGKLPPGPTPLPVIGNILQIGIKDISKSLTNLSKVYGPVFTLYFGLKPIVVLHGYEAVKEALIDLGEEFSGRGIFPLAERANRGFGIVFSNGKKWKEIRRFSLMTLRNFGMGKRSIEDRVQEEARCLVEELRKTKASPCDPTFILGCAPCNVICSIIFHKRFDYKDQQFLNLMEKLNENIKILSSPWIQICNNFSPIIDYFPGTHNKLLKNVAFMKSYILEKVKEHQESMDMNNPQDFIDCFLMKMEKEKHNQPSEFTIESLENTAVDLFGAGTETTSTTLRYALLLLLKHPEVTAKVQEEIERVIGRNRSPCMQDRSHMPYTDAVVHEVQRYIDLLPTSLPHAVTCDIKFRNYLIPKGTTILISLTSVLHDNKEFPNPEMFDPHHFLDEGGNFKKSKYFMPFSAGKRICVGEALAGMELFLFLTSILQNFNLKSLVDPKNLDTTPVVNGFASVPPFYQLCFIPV
# Assay info: Inhibition of CYP2C9
# Type: ADME
Readout type: IC50 (µM)
Return type: number; implicit unit µM.

Chemical structure | IC50 [µM]
O=C(NCc1ccccc1)c1ccc(C(=O)Nc2ccc(Cl)c(-c3ccccn3)c2)c(Cl)c1 | 1.2

Query string: Record lookup: for Cytochrome P450 2C9 (Homo sapiens, UniProt P11712), what IC50 belongs to CS(=O)(=O)Cc1ccc(C(=O)Nc2ccc(Cl)c(-c3ccccn3)c2)c(Cl)c1 ?
Result string: 16

Query string: What about O=C(Nc1ccc(Cl)c(-c2ccccn2)c1)c1ccc(-n2cncn2)nc1 ?
Result string: 0.2

Query string: And what about the compound CS(=O)(=O)Nc1ccc(C(=O)Nc2ccc(Cl)c(-c3ccccn3)c2)c(Cl)c1 ?
Result string: 8

Query string: What would you report for O=C(Nc1ccc(Cl)c(-c2ccccn2)c1)c1ccc(C(=O)N2CCS(=O)(=O)CC2)cc1Cl ?
Result string: 9

* * *

In this section, each of the compounds is paired with its reported IC50.
# Measured target: Cytochrome P450 3A4 (Homo sapiens, UniProt P08684)
# Sequence (P08684 whole entry): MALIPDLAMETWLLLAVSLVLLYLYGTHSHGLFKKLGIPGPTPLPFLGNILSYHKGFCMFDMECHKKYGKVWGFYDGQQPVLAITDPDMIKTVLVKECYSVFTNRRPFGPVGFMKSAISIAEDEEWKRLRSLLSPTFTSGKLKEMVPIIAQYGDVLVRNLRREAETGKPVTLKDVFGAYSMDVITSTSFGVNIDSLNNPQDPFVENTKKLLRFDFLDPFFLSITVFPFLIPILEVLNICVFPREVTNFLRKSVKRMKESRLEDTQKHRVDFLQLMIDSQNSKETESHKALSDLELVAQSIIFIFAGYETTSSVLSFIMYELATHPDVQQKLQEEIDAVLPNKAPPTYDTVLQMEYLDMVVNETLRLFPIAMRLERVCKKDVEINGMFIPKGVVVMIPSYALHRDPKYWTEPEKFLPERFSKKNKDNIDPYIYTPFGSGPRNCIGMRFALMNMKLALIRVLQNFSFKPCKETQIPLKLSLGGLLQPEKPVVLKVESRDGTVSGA
# Assay info: Inhibition of CYP3A4
# Assay type: ADME

Examples from the recorded data:
Chemical structure | Measured target | Recorded value
Cc1nc(C(F)(F)F)ccc1C(=O)Nc1ccc(Cl)c(-c2ccccn2)c1 | Cytochrome P450 3A4 (Homo sapiens, UniProt P08684) | > 20 µM
CC(=O)N1CCN(c2ccc(C(=O)Nc3ccc(Cl)c(-c4ccccn4)c3)c(C)n2)CC1 | Cytochrome P450 3A4 (Homo sapiens, UniProt P08684) | > 20 µM
Cc1nc(NCC(C)C)ccc1C(=O)Nc1ccc(Cl)c(-c2ccccn2)c1 | Cytochrome P450 3A4 (Homo sapiens, UniProt P08684) | 19 µM

Query string: Which IC50 value is on record for Cc1nc(NCCO)ccc1C(=O)Nc1ccc(Cl)c(-c2ccccn2)c1 ?
Result string: > 20 µM

Query string: Query NS(=O)(=O)c1ccc(C(=O)Nc2ccc(Cl)c(-c3ccccn3)c2)c(Cl)c1 next
Result string: > 20 µM

Data credit: ChEMBL document CHEMBL1268916
